Parameter viability, T/C: see the listing below.
System: 885724-159-R-J1-PDC complex spheroid viability
Assay: Anticancer human tumor 885724-159-R-J1-PDC patient-derived pancreatic adenocarcinoma cell line growth inhibition [POLQ]
Settings: second compound 3.16 µM; first compound 0.0316 µM; active compounds read low
value_kind: viability, T/C

[[record]]
compound = "C=CC(=O)N1CCN(c2nc(=O)n(-c3c(C)ccnc3C(C)C)c3nc(-c4c(O)cccc4F)c(F)cc23)C(C)C1 (stereo unspecified) + Cc1cccc(N(C)C(=O)C2C(O)CCN2c2nc(C)cc(C(F)(F)F)c2C#N)c1"
value_kind = "viability, T/C"
value_observed = "98.5%"

[[record]]
compound = "Nc1ccn(C2OC(CO)C(O)C2(F)F)c(=O)n1 (stereo unspecified) + Cc1cccc(N(C)C(=O)C2C(O)CCN2c2nc(C)cc(C(F)(F)F)c2C#N)c1"
value_kind = "viability, T/C"
value_observed = "66%"

[[record]]
compound = "C=CC(=O)N1CCN(c2nc(=O)n(-c3c(C)ccnc3C(C)C)c3nc(-c4c(O)cccc4F)c(F)cc23)C(C)C1 (stereo unspecified) + Nc1ccc(C#CCN(C(=O)Cc2ncc(C(F)(F)F)cc2C(F)(F)F)c2ccc(F)cc2)nn1"
value_kind = "viability, T/C"
value_observed = "96.9%"

[[record]]
compound = "O=C(Nc1ccc(O)c(NS(=O)(=O)c2ccc(F)cc2)c1)c1ccc(-c2ccccc2)cc1 + Cc1cccc(N(C)C(=O)C2C(O)CCN2c2nc(C)cc(C(F)(F)F)c2C#N)c1"
value_kind = "viability, T/C"
value_observed = "107%"

[[record]]
compound = "CC1COCCN1c1cc(C2(S(C)(=N)=O)CC2)nc(-c2ccnc3[nH]ccc23)n1 (stereo unspecified) + COC1C(OC(N)=O)C(O)C(Oc2ccc3c(O)c(NC(=O)c4ccc(O)c(CC=C(C)C)c4)c(=O)oc3c2C)OC1(C)C"
value_kind = "viability, T/C"
value_observed = "102%"

[[record]]
compound = "CCCS(=O)(=O)Nc1ccc(F)c(C(=O)c2c[nH]c3ncc(-c4ccc(Cl)cc4)cc23)c1F + Cc1cccc(N(C)C(=O)C2C(O)CCN2c2nc(C)cc(C(F)(F)F)c2C#N)c1"
value_kind = "viability, T/C"
value_observed = "108%"

[[record]]
compound = "CCc1cc2c(N3CCc4c(cc(Cn5ccnc5)cc4-c4cn(C)nc4C(F)(F)F)C3=O)cc(C)nc2c(OC)n1 + Cc1cccc(N(C)C(=O)C2C(O)CCN2c2nc(C)cc(C(F)(F)F)c2C#N)c1"
value_kind = "viability, T/C"
value_observed = "93.2%"

[[record]]
compound = "CC1COCCN1c1cc(C2(O)CC3CCC(C2)O3)c2cnn(-c3ccn[nH]3)c2n1 (stereo unspecified) + Nc1ccc(C#CCN(C(=O)Cc2ncc(C(F)(F)F)cc2C(F)(F)F)c2ccc(F)cc2)nn1"
value_kind = "viability, T/C"
value_observed = "67%"

[[record]]
compound = "CCc1c2c(nc3ccc(O)cc13)-c1cc3c(c(=O)n1C2)COC(=O)[C@]3(O)CC + Cc1cccc(N(C)C(=O)C2C(O)CCN2c2nc(C)cc(C(F)(F)F)c2C#N)c1"
value_kind = "viability, T/C"
value_observed = "51.7%"

[[record]]
compound = "CCc1c2c(nc3ccc(O)cc13)-c1cc3c(c(=O)n1C2)COC(=O)[C@]3(O)CC + COC1C(OC(N)=O)C(O)C(Oc2ccc3c(O)c(NC(=O)c4ccc(O)c(CC=C(C)C)c4)c(=O)oc3c2C)OC1(C)C"
value_kind = "viability, T/C"
value_observed = "45.1%"

[[record]]
compound = "O=c1[nH]cc(F)c(=O)[nH]1 + Nc1ccc(C#CCN(C(=O)Cc2ncc(C(F)(F)F)cc2C(F)(F)F)c2ccc(F)cc2)nn1"
value_kind = "viability, T/C"
value_observed = "97.1%"

[[record]]
compound = "O=C(Nc1ccc(O)c(NS(=O)(=O)c2ccc(F)cc2)c1)c1ccc(-c2ccccc2)cc1 + Nc1ccc(C#CCN(C(=O)Cc2ncc(C(F)(F)F)cc2C(F)(F)F)c2ccc(F)cc2)nn1"
value_kind = "viability, T/C"
value_observed = "97.1%"

[[record]]
compound = "COc1cc(C2c3cc4c(cc3C(OC3OC5COC(C)OC5C(O)C3O)C3COC(=O)C23)OCO4)cc(OC)c1O (stereo unspecified) + Nc1ccc(C#CCN(C(=O)Cc2ncc(C(F)(F)F)cc2C(F)(F)F)c2ccc(F)cc2)nn1"
value_kind = "viability, T/C"
value_observed = "87.8%"

[[record]]
compound = "CC[C@@]1(O)C(=O)OCc2c1cc1n(c2=O)Cc2cc3c(CN(C)C)c(O)ccc3nc2-1 + COC1C(OC(N)=O)C(O)C(Oc2ccc3c(O)c(NC(=O)c4ccc(O)c(CC=C(C)C)c4)c(=O)oc3c2C)OC1(C)C"
value_kind = "viability, T/C"
value_observed = "77.3%"

[[record]]
compound = "C=CCn1c(=O)c2cnc(Nc3ccc(N4CCN(C)CC4)cc3)nc2n1-c1cccc(C(C)(C)O)n1 + Cc1cccc(N(C)C(=O)C2C(O)CCN2c2nc(C)cc(C(F)(F)F)c2C#N)c1"
value_kind = "viability, T/C"
value_observed = "94.2%"

[[record]]
compound = "O=c1[nH]cc(F)c(=O)[nH]1 + COC1C(OC(N)=O)C(O)C(Oc2ccc3c(O)c(NC(=O)c4ccc(O)c(CC=C(C)C)c4)c(=O)oc3c2C)OC1(C)C"
value_kind = "viability, T/C"
value_observed = "104%"

[[record]]
compound = "CCc1c2c(nc3ccc(O)cc13)-c1cc3c(c(=O)n1C2)COC(=O)[C@]3(O)CC + Nc1ccc(C#CCN(C(=O)Cc2ncc(C(F)(F)F)cc2C(F)(F)F)c2ccc(F)cc2)nn1"
value_kind = "viability, T/C"
value_observed = "51.4%"

[[record]]
compound = "CNCc1ccc(-c2[nH]c3cc(F)cc4c3c2CCNC4=O)cc1 + Nc1ccc(C#CCN(C(=O)Cc2ncc(C(F)(F)F)cc2C(F)(F)F)c2ccc(F)cc2)nn1"
value_kind = "viability, T/C"
value_observed = "100%"

[[record]]
compound = "CCc1cc2c(N3CCc4c(cc(Cn5ccnc5)cc4-c4cn(C)nc4C(F)(F)F)C3=O)ccnc2c(OC)n1 + COC1C(OC(N)=O)C(O)C(Oc2ccc3c(O)c(NC(=O)c4ccc(O)c(CC=C(C)C)c4)c(=O)oc3c2C)OC1(C)C"
value_kind = "viability, T/C"
value_observed = "87.5%"

[[record]]
compound = "COc1ccc([C@@H](O)c2cc(-c3ncnc4cc(N5CCOCC5)ccc34)c(F)cc2Cl)nn1 + COC1C(OC(N)=O)C(O)C(Oc2ccc3c(O)c(NC(=O)c4ccc(O)c(CC=C(C)C)c4)c(=O)oc3c2C)OC1(C)C"
value_kind = "viability, T/C"
value_observed = "89.9%"

[[record]]
compound = "CNCc1ccc(-c2[nH]c3cc(F)cc4c3c2CCNC4=O)cc1 + Cc1cccc(N(C)C(=O)C2C(O)CCN2c2nc(C)cc(C(F)(F)F)c2C#N)c1"
value_kind = "viability, T/C"
value_observed = "102%"


====

System: 885724-159-R-J1-PDC complex spheroid viability
Assay: Anticancer human tumor 885724-159-R-J1-PDC cell line growth inhibition [POLQ];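 also: spheroids exposed to compounds for 7 days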
Conditions: second compound 1 µM; first compound 10 µM; active compounds read low
Parameter: viability, T/C. Scope: all listed entries.
value_kind: viability, T/C (%)

[[record]]
molecule = "CC1COCCN1c1cc(C2(S(C)(=N)=O)CC2)nc(-c2ccnc3[nH]ccc23)n1 (stereo not given) + Cc1cccc(N(C)C(=O)C2C(O)CCN2c2nc(C)cc(C(F)(F)F)c2C#N)c1"
tested_target = "885724-159-R-J1-PDC complex spheroid viability"
value_kind = "viability, T/C"
value_observed = 47.2

[[record]]
molecule = "CC1COCCN1c1cc(-c2ccnn2C)c2ccnc(-c3ccn[nH]3)c2n1 (stereo not given) + Cc1cccc(N(C)C(=O)C2C(O)CCN2c2nc(C)cc(C(F)(F)F)c2C#N)c1"
tested_target = "885724-159-R-J1-PDC complex spheroid viability"
value_kind = "viability, T/C"
value_observed = 38.3

[[record]]
molecule = "COc1ccc([C@@H](O)c2cc(-c3ncnc4cc(N5CCOCC5)ccc34)c(F)cc2Cl)nn1 + COC1C(OC(N)=O)C(O)C(Oc2ccc3c(O)c(NC(=O)c4ccc(O)c(CC=C(C)C)c4)c(=O)oc3c2C)OC1(C)C"
tested_target = "885724-159-R-J1-PDC complex spheroid viability"
value_kind = "viability, T/C"
value_observed = 34.3

[[record]]
molecule = "Nc1ccn(C2OC(CO)C(O)C2(F)F)c(=O)n1 (stereo not given) + COC1C(OC(N)=O)C(O)C(Oc2ccc3c(O)c(NC(=O)c4ccc(O)c(CC=C(C)C)c4)c(=O)oc3c2C)OC1(C)C"
tested_target = "885724-159-R-J1-PDC complex spheroid viability"
value_kind = "viability, T/C"
value_observed = 41.2

[[record]]
molecule = "COc1cc(C2c3cc4c(cc3C(OC3OC5COC(C)OC5C(O)C3O)C3COC(=O)C23)OCO4)cc(OC)c1O (stereo not given) + Nc1ccc(C#CCN(C(=O)Cc2ncc(C(F)(F)F)cc2C(F)(F)F)c2ccc(F)cc2)nn1"
tested_target = "885724-159-R-J1-PDC complex spheroid viability"
value_kind = "viability, T/C"
value_observed = 53.5

